Target: T1, human GIP receptor (human, UniProt P48546 22-466)
T1 sequence (looked up): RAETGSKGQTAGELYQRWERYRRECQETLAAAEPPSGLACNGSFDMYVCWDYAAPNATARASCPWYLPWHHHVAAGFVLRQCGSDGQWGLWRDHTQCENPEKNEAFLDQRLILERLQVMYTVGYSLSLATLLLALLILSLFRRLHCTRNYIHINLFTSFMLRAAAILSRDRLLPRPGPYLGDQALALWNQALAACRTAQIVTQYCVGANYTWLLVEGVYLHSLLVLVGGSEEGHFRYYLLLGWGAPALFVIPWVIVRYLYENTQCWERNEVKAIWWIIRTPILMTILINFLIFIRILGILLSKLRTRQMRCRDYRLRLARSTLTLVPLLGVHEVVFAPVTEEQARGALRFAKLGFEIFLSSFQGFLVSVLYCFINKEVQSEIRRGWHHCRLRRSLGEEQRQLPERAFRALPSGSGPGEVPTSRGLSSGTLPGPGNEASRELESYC
Test: cell-based or functional assay
Starred links: 1 amine or outer side, 2 acyl side, 3 side chain; linkers in the order of their positions; H or OH if unused. Non-standard residues stand in square brackets, D forms with d. Groups on a side chain read outwards from the residue. No end group written: not given here. *: point of attachment. C18 diacid = O=C(O)CCCCCCCCCCCCCCCCC(=O)*; C16 diacid = O=C(O)CCCCCCCCCCCCCCC(=O)*; γGlu = O=C(O)[C@H](CCC(=O)[*:2])N[*:1]; Glutaryl = O=C(CCCC(=O)[*:2])[*:1]; Nle = CCCC[C@H](N)C(=O)O; AEEA = NCCOCCOCC(=O)O; Aib = CC(C)(N)C(=O)O
Listing: cAMP antagonism pIC50 (CisBio assay) of selected binders

{"BINDER": "EGTFISDYSI[Aib][Nle]DKIK(C16 diacid)QQDFVEWLLAQKPSSGAPPPS-OH [AT667]", "cAMP antagonism pIC50 (CisBio assay)": 9.1}
{"BINDER": "EGTFISDYSI[Aib]LDKIK([AEEA-AEEA-γGlu-C18 diacid])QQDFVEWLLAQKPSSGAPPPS-OH [AT685]", "cAMP antagonism pIC50 (CisBio assay)": 8.7}
{"BINDER": "EGTFISDYSI[Aib]MDKIK(C16 diacid)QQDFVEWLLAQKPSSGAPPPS-OH [AT665]", "cAMP antagonism pIC50 (CisBio assay)": 9.8}
{"BINDER": "EGTFISDYSIA[Nle]DKIK([AEEA-AEEA-γGlu-C18 diacid])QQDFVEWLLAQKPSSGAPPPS-OH [AT683]", "cAMP antagonism pIC50 (CisBio assay)": 7.8}
{"BINDER": "Glutaryl-GTFISDYSIA[Nle]DKIK([AEEA-AEEA-γGlu-C18 diacid])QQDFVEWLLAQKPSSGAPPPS-OH [AT702]", "cAMP antagonism pIC50 (CisBio assay)": 8.5}
{"BINDER": "EGTFISDYSI[Aib][Nle]DKIK([AEEA-AEEA-γGlu-C18 diacid])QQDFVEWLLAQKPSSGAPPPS-OH [AT686]", "cAMP antagonism pIC50 (CisBio assay)": 8.5}
{"BINDER": "EGTFISDYSI[Aib]LDKIK(C16 diacid)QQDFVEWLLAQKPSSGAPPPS-OH [AT666]", "cAMP antagonism pIC50 (CisBio assay)": 9.6}
{"BINDER": "Glutaryl-GTFISDYSIA[Nle]DKIK(C16 diacid)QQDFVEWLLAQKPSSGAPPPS-OH [AT700]", "cAMP antagonism pIC50 (CisBio assay)": 9.2}
